system: S. aureus RN4220; experiment: growth inhibition call (relative growth <= 0.2); conditions: 50 µM
In all, about 39,000 compounds went through this assay and about 500 (1.3%) were called active. The sample as a whole holds a higher share of actives than the screen did.
Outcomes you can answer with include only these: 1.0 (active), 0.0 (inactive)

cpd_smiles: CCCCCCOC(=O)/N=C(/N)c1ccc(NCc2nc3cc(C(=O)N(CCC(=O)OCC)c4ccccn4)ccc3n2C)cc1
category: 0.0

cpd_smiles: COc1ccc2c3c(n(c2c1)C)[C@@H](CO)N(Cc1ccccc1F)C[C@]13CN(C1)C(=O)C1CCOCC1
category: 0.0

Look up the recorded call for COc1ccc2c3c(n(c2c1)C)[C@@H](CO)N(C[C@]13CN(C1)C(=O)CN(C)C)C(=O)CN(C)C in this test.
0.0

Try Cc1ccc(C)c(OCCCC(C)(C)C(=O)O)c1 next.
0.0

C[C@H](CO)N1C[C@H](C)[C@@H](CN(C)Cc2ccc(Oc3ccccc3)cc2)Oc2ccc(NS(=O)(=O)c3cccs3)cc2C1=O ?
0.0

Lookup COc1ccc(Nc2ccc(-c3ccncc3)s2)cc1Cl
0.0

Would you mind doing CC(C)(C)Cc1ccc(OCCCC(=O)O)c(CC(C)(C)C)c1 as well?
1.0

----------
tested on: S. aureus RN4220; assay: growth inhibition call (relative growth <= 0.2); conditions: 50 µM
Among all 39,000 compounds or so, about 500 (1.3%) were called active. For the sample, actives were picked, then their nearest neighbours and some compounds at random.
Returns: one label drawn from yes (1) = active, no (0) = inactive

compound: C[C@@H]1CN([C@@H](C)CO)C(=O)c2cc(NC(=O)Nc3ccc(F)cc3)ccc2O[C@@H](C)CCCCO[C@@H]1CN(C)C(=O)Cc1ccccc1
category: no (0)
--
compound: C[C@H](O)C#Cc1cnc2c(c1)C(=O)N([C@H](C)CO)C[C@H](C)[C@@H](CN(C)C(=O)Nc1ccc(C(F)(F)F)cc1)O2
category: no (0)
--
compound: C[C@H](CO)N1C[C@H](C)[C@H](CN(C)Cc2ccncc2)OCCCC[C@H](C)Oc2ccc(NC(=O)C3CCCCC3)cc2C1=O
category: no (0)

Please share the test call associated with CCC1OC(=O)C(C)C(OC2CC(C)(OC)C(O)C(C)O2)C(C)C(OC2OC(C)CC(N(C)C)C2O)C(C)(O)CC(C)C2NC(COCCOC)OC(C2C)C1(C)O (centres undefined) .
yes (1)

Quick one: Cc1cncc2cccc(S(=O)(=O)N[C@H]3CN[C@@H](COC(=O)NCCOCCOCCN)C3)c12
no (0)

Next compound: C[C@@H]1O[C@@H](O[C@@H]2[C@@H](O)[C@H](OCCc3ccc(O)c(O)c3)O[C@H](CO)[C@H]2OC(=O)/C=C/c2ccc(O)c(O)c2)[C@H](O)[C@H](O)[C@H]1O
no (0)

Next entry: CCC(=C/[C@H](C)C/C=C/C(C)=C/[C@@H](C)C(=O)[C@@H](C)[C@H](O)[C@@H](C)C/C(C)=C/C(=O)O)/C=C/[C@@H]1OC(=O)C=C[C@@H]1C
yes (1)

----------
tested on: S. aureus RN4220; test: growth inhibition call (relative growth <= 0.2); details: 50 µM
Screen size: about 39,000 compounds; about 500 (1.3%) were called active. The sample as a whole holds a higher share of actives than the screen did.
Return exactly one item of true (1) for active, false (0) for inactive

Solved entries (count: 2):
compound: Cc1cc(-c2nnc(N)o2)nn1C
category: false (0)
--
compound: CN(C)C1C(O)=C(C(N)=O)C(=O)C2(O)C(O)=C3C(=O)c4c(O)ccc(Cl)c4C(O)C3CC12.Cl (stereo not drawn)
category: false (0)

Attention now shifts to the item below.
Give the logged outcome of this assay for the following compound: CN(C)[C@@H]1C(=O)[C@@H](C(N)=O)C(=O)[C@@]2(O)C(=O)[C@@H]3C(=O)c4c(O)c(NC(=O)CN5CCCC5)cc(F)c4C[C@H]3C[C@@H]12
true (1)

----------
system: S. aureus RN4220; experiment: growth inhibition call (relative growth <= 0.2); settings: 50 µM
Hit rate of the full screen: of about 39,000 compounds, about 500 (1.3%) were called active. For the sample, actives were picked, then their nearest neighbours and some compounds at random.
Thanks in advance; please answer with one of these: 1 = active, -1 = inactive

cpd_smiles: O=C(C[C@H]1CC[C@@H]2[C@H](COC[C@@H](O)CN2C(=O)Nc2ccc(C(F)(F)F)cc2)O1)NCCc1ccncc1
category: 1

Assay result, entry O=C(C[C@@H]1CC[C@@H]2[C@H](COC[C@H](O)CN2C(=O)Nc2ccc(C(F)(F)F)cc2)O1)NCCc1ccncc1 — outcome?
-1

Now the molecule O=C(C[C@H]1CC[C@@H]2[C@H](COC[C@@H](O)CN2C(=O)Nc2ccc(C(F)(F)F)cc2)O1)NCc1ccncn1
-1

Try the molecule O=C(C[C@@H]1CC[C@@H]2[C@H](COC[C@H](O)CN2C(=O)Nc2ccc(Cl)cc2)O1)NCCc1ccncc1
-1

Okay, and O=C(C[C@H]1CC[C@@H]2[C@H](COC[C@@H](O)CN2C(=O)Nc2ccc(Cl)cc2)O1)NCCc1ccncc1 ?
-1

What do we get for O=C(C[C@@H]1CC[C@H]2[C@@H](COC[C@@H](O)CN2C(=O)Nc2ccc(Cl)cc2)O1)NCCc1ccncc1 ?
-1

Same read-out for O=C(C[C@H]1CC[C@H]2[C@@H](COC[C@@H](O)CN2C(=O)Nc2ccc(C(F)(F)F)cc2)O1)NCCc1ccncc1 ?
1

----------
system: S. aureus RN4220; test: growth inhibition call (relative growth <= 0.2); conditions: 50 µM
Among all 39,000 compounds or so, about 500 (1.3%) were called active. This excerpt belongs to a sample that is enriched for actives.
Write down one outcome, taken from 1.0 = active, 0.0 = inactive

// known answers, use as guide
cpd_smiles: O=C(C[C@H]1CC[C@@H]2[C@H](COC[C@@H](O)CN2C(=O)Nc2cc(Cl)cc(Cl)c2)O1)N1CCOCC1
category: 0.0

cpd_smiles: C[N+](C)(CCOc1ccccc1)Cc1ccccc1.O=C(O)c1cc2ccccc2c(Br)c1O
category: 0.0

cpd_smiles: C[C@@H]1CN([C@H](C)CO)C(=O)c2cc(NC(=O)C3CCCCC3)ccc2O[C@@H](C)CCCCO[C@@H]1CN(C)Cc1ccc2c(c1)OCO2
category: 0.0

As a next step, examine the compound that follows.
Which outcome did this test record for the compound O=C(C[C@@H]1CC[C@@H]2[C@H](COC[C@@H](O)CN2C(=O)Nc2cc(Cl)cc(Cl)c2)O1)N1CCOCC1 ?
1.0

----------
test system: S. aureus RN4220; test: growth inhibition call (relative growth <= 0.2); settings: 50 µM
Hit rate of the full screen: of about 39,000 compounds, about 500 (1.3%) were called active. Many of the other results were omitted from the sample, so actives are more common in it than they were.
Respond using exactly one of the listed classes: 1 (yes) for active, 0 (no) for inactive

// known answers, use as guide
compound: CC(C)(C)[S@](=O)N1Cc2cc(C(=O)NCc3ccccc3F)nc(-c3cccc(-c4ccncc4)c3)c2[C@@H]1CCO
measured_on: S. aureus RN4220
category: 0 (no)

compound: COc1ccc(S(=O)(=O)Nc2ccc3c(c2)CC(=O)N([C@@H](C)CO)C[C@H](C)[C@@H](CN(C)S(C)(=O)=O)O3)cc1
measured_on: S. aureus RN4220
category: 0 (no)

compound: Cc1cccc(S(=O)(=O)N2C[C@H](O)COC[C@@H]3O[C@@H](CC(=O)NCc4ccc5c(c4)OCO5)CC[C@H]32)c1
measured_on: S. aureus RN4220
category: 0 (no)

Each compound tested received a call. Report the one for C[C@@H]1CCCCO[C@@H](CN(C)C(=O)Nc2ccc3c(c2)OCO3)[C@H](C)CN([C@@H](C)CO)C(=O)c2cc(NC(=O)Nc3ccccc3)ccc2O1 .
0 (no)

Moving on to the next compound: Cc1ccc2sc(N(CCCN(C)C)C(=O)c3ccc(S(=O)(=O)N(C)C4CCCCC4)cc3)nc2c1C
1 (yes)

Further, for COc1cccc(S(=O)(=O)N2C[C@@H](O)COC[C@@H]3O[C@@H](CC(=O)N4CCN(c5ccccc5)CC4)CC[C@H]32)c1 ?
0 (no)

What about this compound? C[C@H]1CN([C@@H](C)CO)C(=O)c2cccc(NC(=O)C3CCCCC3)c2O[C@H]1CN(C)C(=O)Nc1ccc(C(F)(F)F)cc1
0 (no)

----------
tested on: S. aureus RN4220; test: growth inhibition call (relative growth <= 0.2); conditions: 50 µM
Out of some 39,000 compounds screened, about 500 (1.3%) were called active. The list comes from a sample in which actives are over-represented; it also holds close analogues and randomly drawn compounds.
recorded_metric: growth inhibition call

# count of solved cases: 5
molecule: Cn1cnc(CCNC(=O)C[C@@H]2CC[C@H]3[C@@H](COC[C@H](O)CN3C(=O)Nc3ccc(C(F)(F)F)cc3)O2)c1
recorded_metric: growth inhibition call
reported_value: inactive

molecule: C=CCOC(=O)O[C@H]1[C@@H](OC)O[C@H](COC(=O)NCCCCCC(=O)NO)[C@@H](OC(=O)[C@H](CC=C)Cc2cccc(Br)c2)[C@@H]1OC(=O)[C@H](CC=C)Cc1ccccc1
recorded_metric: growth inhibition call
reported_value: inactive

molecule: C[C@@H]1CN([C@@H](C)CO)C(=O)c2cc(NC(=O)CCN3CCOCC3)ccc2O[C@H]1CN(C)S(=O)(=O)c1ccc(F)cc1
recorded_metric: growth inhibition call
reported_value: inactive

molecule: O=C1NCC(=O)N2[C@@H]1C[C@@H](C(=O)O)[C@H]2c1ccc(O)cc1
recorded_metric: growth inhibition call
reported_value: inactive

molecule: C/C=C(/C)C(=O)O[C@H]1[C@@H](OC(C)=O)[C@@]2(CO)[C@@H](O)C[C@@]3(C)C(=CC[C@H]4[C@@]5(C)CC[C@@H](O[C@H]6O[C@H](C(=O)O)[C@@H](O[C@H]7O[C@@H](CO)[C@@H](O)[C@@H](O)[C@@H]7O)[C@@H](O)[C@@H]6O[C@H]6O[C@@H](CO)[C@@H](O)[C@@H](O)[C@@H]6O)[C@@](C)(CO)[C@@H]5CC[C@]43C)[C@@H]2CC1(C)C
recorded_metric: growth inhibition call
reported_value: inactive

Turning now to a further record.
Which growth inhibition call is listed for C[C@H](CO)N1C[C@H](C)[C@@H](CN(C)CC2CC2)OCCCC[C@H](C)Oc2ccc(NC(=O)CCCCCC(=O)Nc3ccccc3N)cc2C1=O ?
inactive

Reference for the values: the antibiotic and cytotoxicity screens of Wong et al. (2023)
